assay.system: T1, EsCas13d, nuclease-dead (Eubacterium siraeum, UniProt B0MS50, R295A;H300A;R849A;H854A)
T1 sequence: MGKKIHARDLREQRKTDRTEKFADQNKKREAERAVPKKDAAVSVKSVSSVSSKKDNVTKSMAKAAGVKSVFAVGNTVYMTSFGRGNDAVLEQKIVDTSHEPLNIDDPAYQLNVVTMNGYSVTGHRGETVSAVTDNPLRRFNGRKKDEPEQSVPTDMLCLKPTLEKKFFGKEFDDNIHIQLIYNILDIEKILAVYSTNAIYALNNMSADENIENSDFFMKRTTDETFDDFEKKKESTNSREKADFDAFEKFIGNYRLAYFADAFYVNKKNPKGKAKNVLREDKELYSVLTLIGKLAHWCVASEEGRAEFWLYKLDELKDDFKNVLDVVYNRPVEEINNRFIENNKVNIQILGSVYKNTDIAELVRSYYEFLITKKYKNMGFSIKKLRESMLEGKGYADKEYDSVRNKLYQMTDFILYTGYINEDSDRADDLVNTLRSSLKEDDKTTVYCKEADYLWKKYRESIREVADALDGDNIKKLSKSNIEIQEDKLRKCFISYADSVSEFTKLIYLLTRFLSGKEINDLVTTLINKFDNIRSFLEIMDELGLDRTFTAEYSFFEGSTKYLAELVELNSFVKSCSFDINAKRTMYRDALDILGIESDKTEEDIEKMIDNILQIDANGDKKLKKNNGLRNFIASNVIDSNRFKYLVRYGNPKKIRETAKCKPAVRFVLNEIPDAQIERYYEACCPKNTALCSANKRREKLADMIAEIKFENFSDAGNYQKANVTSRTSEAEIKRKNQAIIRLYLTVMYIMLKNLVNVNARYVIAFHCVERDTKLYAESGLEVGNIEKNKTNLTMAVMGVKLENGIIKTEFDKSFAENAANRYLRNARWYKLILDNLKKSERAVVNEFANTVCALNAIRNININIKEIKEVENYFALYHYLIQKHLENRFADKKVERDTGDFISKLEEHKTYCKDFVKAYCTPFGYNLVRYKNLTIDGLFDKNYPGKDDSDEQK
assay.method.text: crRNA (strand 1, pre-loaded); Mg2+; 40 mM Tris-HCl pH 7.5, 150 mM NaCl, 6 mM MgCl2, 1 mM DTT, 0.1% Tween-20, 0.2 mg/ml BSA; 25 C; 10 min per concentration, then washed
condition.label: tags: His6-TwinStrep-SUMO cleaved; N-terminal SNAP kept (SNAP-Surface 488); label: 3' end held by stalled T7 RNA polymerase
pKd: −log10 of the molar value.
Quick reference: pKd of the listed items.
endpoint.label: pKd

binder	recorded.result
target 1 insU 3' of 7,insA 3' of 4 (mixed) RNA 1: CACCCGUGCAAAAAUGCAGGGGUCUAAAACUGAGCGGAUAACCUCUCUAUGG RNA 2: GGGAAUGGAUCCACAUCUACGAAUUCGUACCAUAGAGAGGUUAUCUCGCAUCACCGAGAUCGGAAGAGCACACGU	8.01
target 1 insU 3' of 20,insC 3' of 5 (mixed) RNA 1: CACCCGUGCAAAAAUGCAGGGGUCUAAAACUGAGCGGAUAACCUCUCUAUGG RNA 2: GGGAAUGGAUCCACAUCUACGAAUUCGUACCAUUAGAGAGGUUAUCCGCCUCACCGAGAUCGGAAGAGCACACGU	7.44
target 1 insA 3' of 22,insA 3' of 7 (mixed) RNA 1: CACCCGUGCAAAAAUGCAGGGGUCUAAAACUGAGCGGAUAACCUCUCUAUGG RNA 2: GGGAAUGGAUCCACAUCUACGAAUUCGUACACAUAGAGAGGUUAUCACGCUCACCGAGAUCGGAAGAGCACACGU	8.10
target 2 MT 5'PFS GCU 3'PFS AAU (mixed) RNA 1: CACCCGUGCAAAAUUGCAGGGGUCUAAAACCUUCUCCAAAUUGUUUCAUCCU RNA 2: GGGAAUGGAUCCACAUCUACGAAUUCGCUAGGAUGAAACAAUUUGGAGAAGAAUAGAUCGGAAGAGCACACGU	7.92
target 1 insC 3' of 18,insA 3' of 3 (mixed) RNA 1: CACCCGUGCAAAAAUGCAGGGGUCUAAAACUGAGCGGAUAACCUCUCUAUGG RNA 2: GGGAAUGGAUCCACAUCUACGAAUUCGUACCAUACGAGAGGUUAUCCGCUACACCGAGAUCGGAAGAGCACACGU	7.62
target 1 insG 3' of 22,insG 3' of 1 (mixed) RNA 1: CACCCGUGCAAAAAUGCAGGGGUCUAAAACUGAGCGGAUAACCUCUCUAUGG RNA 2: GGGAAUGGAUCCACAUCUACGAAUUCGUACGCAUAGAGAGGUUAUCCGCUCAGCCGAGAUCGGAAGAGCACACGU	7.58
target 1 U3C,G12C (mixed) RNA 1: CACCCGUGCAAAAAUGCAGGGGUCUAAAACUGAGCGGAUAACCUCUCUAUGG RNA 2: GGGAAUGGAUCCACAUCUACGAAUUCGUACCAUAGAGAGCUUAUCCGCCCACCGAGAUCGGAAGAGCACACGU	7.85
target 3 del6 (mixed) RNA 1: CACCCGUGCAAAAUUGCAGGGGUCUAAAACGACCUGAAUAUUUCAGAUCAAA RNA 2: GGGAAUGGAUCCACAUCUACGAAUUCGUUUUUGAUCUGAAAUAUUAGGUCUGCAGAUCGGAAGAGCACACGU	7.42
